assayed system: NMDA receptor (GRIN1/GRIN2A subunits) (Homo sapiens, UniProt Q05586+Q12879)
Construct: expressed in transfected cells
Sequence (Q12879 23-1464, other chains not shown): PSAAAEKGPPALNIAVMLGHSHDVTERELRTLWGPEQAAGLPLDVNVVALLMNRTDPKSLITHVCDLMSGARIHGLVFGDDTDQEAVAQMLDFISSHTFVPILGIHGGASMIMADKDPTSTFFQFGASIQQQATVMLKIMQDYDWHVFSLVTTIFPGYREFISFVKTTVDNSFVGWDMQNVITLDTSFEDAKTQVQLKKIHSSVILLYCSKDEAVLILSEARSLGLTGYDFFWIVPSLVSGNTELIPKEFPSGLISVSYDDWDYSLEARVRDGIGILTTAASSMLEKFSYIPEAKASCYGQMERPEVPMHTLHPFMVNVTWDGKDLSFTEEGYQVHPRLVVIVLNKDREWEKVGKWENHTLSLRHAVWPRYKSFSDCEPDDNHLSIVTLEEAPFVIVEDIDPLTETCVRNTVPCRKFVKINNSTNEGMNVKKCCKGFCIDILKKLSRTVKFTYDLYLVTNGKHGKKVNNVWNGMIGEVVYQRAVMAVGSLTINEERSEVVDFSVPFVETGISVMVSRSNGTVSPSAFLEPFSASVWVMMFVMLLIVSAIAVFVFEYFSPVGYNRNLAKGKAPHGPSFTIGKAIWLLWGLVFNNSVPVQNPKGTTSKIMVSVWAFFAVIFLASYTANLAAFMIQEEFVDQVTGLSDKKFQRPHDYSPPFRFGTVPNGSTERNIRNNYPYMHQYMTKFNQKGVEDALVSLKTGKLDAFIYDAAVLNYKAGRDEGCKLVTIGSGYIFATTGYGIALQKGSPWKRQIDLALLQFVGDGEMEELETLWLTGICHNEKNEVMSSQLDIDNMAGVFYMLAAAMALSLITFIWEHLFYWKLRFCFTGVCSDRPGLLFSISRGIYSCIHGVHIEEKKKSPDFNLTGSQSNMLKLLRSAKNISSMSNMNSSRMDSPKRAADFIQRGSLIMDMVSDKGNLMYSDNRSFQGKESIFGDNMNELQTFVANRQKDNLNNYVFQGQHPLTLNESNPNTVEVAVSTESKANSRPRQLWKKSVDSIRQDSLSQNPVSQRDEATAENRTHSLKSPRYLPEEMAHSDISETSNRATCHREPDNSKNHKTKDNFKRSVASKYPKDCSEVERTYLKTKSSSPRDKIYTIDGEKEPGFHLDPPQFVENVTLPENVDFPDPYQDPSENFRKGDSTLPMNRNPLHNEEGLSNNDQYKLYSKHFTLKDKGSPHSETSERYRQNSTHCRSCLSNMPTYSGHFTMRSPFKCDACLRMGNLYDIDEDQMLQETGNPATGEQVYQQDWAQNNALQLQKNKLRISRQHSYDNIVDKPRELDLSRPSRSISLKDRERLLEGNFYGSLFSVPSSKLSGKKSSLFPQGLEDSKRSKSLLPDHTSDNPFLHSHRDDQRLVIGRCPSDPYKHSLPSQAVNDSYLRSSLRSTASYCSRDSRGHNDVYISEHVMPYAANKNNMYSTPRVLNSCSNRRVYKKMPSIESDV
protocol text: NMDA potentiation, whole-cell patch-clamp in HEK cells
Format: cell-based
test parameters: compound 1 uM, currents evoked by 30 μM NMDA and 5.0 μM Glycine, holding potential −80 mV
recorded metric: NMDA 1a2A (%) Potentiation 1 uM

[[record]]
cpd_smiles = "C[C@H](CCCO)[C@H]1CC[C@H]2[C@@H]3CC=C4C[C@@H](O)CC[C@]4(C)[C@H]3CC[C@]12C"
recorded_metric = "NMDA 1a2A (%) Potentiation 1 uM"
u = "%"
measured_value = 127

[[record]]
cpd_smiles = "C[C@H](CCC(C)(C)O)[C@H]1CC[C@H]2[C@@H]3CC[C@H]4C[C@@H](O)CC[C@]4(C)[C@H]3CC[C@]12C"
recorded_metric = "NMDA 1a2A (%) Potentiation 1 uM"
u = "%"
measured_value = 85

[[record]]
cpd_smiles = "C[C@H](CC(F)(F)CO)[C@H]1CC[C@H]2[C@@H]3CC=C4C[C@@H](O)CC[C@]4(C)[C@H]3CC[C@]12C"
recorded_metric = "NMDA 1a2A (%) Potentiation 1 uM"
u = "%"
measured_value = 95

